- Assay Comment: 24-hour plasma pharmacokinetics in CD-1 laboratory mice
- Format: in vivo, mouse
- Assay Conditions: male, mouse, plasma, ip; CD-1 mice, males, i.p. 60 mg/kg; read-out: Cmax of the plasma
Attribute Measured: Cmax (ng/mL)
The answer is to be given in ng/mL; state only the numeric part.

NC(=O)c1cn([C@@H]2O[C@H](CO)[C@@H](O)[C@H]2O)c2ncnc(N)c12 has a reported Cmax of 97.3

----------
- Test system: SARS-CoV-2
- Assay Comment: Combinatorial sangivamycin/remdesivir efficacy testing, Calu-3 cells
- Format: cell-based
- Assay Conditions: Severe acute respiratory syndrome coronavirus 2, Calu-3; read-out: IC50 (nM), S:R by [Sangivamycin]
Attribute Measured: IC50 (nM)
The answer is to be given in nM; state only the numeric part.

NC(=O)c1cn([C@@H]2O[C@H](CO)[C@@H](O)[C@H]2O)c2ncnc(N)c12 [Sangivamycin, sangivamycin] has a reported IC50 of 69.6

Reference source: paper PMC8765048
